The origin of these recorded values is patent US6037365A.

Test system: platelet aggregation in platelet-rich plasma (PRP)
assay-remarks: In-Vitro Platelet Aggregation in PRP (ADP-induced)
Assay type: cell-based, dogs
setup-conditions: dog PRP, ADP 50 μM final concentration, 1 min preincubation at 37° C., aggregation monitored 1 min; unit inferred; read-out: IC50 (dosage at which 50% of platelet aggregation is inhibited)
Experimental: In-Vitro Platelet Aggregation in PRP Healthy male or female dogs were fasted for 8 hours prior to drawing blood; then 30 mL whole blood was collected using a butterfly needle and 30 mL plastic syringe with 3 mL of 0.129M buffered sodium citrate (3.8%). […] Adenosine-5'-diphosphate (ADP, 50 μL, 50 μM final concentration) was added to the cuvettes and the aggregation was monitored for 1 minute. […] The compounds tested and their median inhibitory concentrations (IC50) are recorded in Table 1. […]
Hi there, I'd appreciate the recorded pIC50 for every entry that follows.
Numbers only, as −log10 of the molar value.

- compound: "N=C(N)c1ccc(NC(=O)CCC(=O)N[C@H]2CC(=O)OC2c2ccccc2)cc1 (single isomer, unassigned; isomer a) [Ex 2 Step 5]"
  observed: 6.19
- compound: "N=C(N)c1ccc(NC(=O)CCC(=O)N[C@@H](CC(=O)O)C(O)c2ccc3c(c2)OCO3)cc1 (single isomer, unassigned) [Ex 10 Step 2]"
  observed: 5.89

I have 4 compounds here; please give me pIC50 for each one.
1. N=C(N)c1ccc(NC(=O)CCC(=O)N[C@@H](CC(=O)O)C(O)c2ccc3c(c2)OCO3)cc1 (single isomer, unassigned) [Ex 9 Step 6]
2. N=C(N)c1ccc(NC(=O)CCC(=O)N[C@H]2CC(=O)OC2c2ccc3c(c2)OCO3)cc1 (single isomer, unassigned; diastereoisomer 1) [Ex 9 Step 5]
3. N=C(N)c1ccc(NC(=O)CCC(=O)NC(CC(=O)O)C(O)c2nccs2)cc1 (stereo not drawn)
4. N=C(N)c1ccc(NC(=O)CCC(=O)N[C@@H](CC(=O)O)C(O)c2ccc(F)cc2)cc1 (single isomer, unassigned) [Ex 5 Step 2]

### Response
[6.46, 6.37, 6.35, 6.10]
